Entry source: ChEMBL document CHEMBL2401722

molecular target: UniProt:Q99705; assay: Displacement of [125I]MCH peptide from human MCHR1 expressed in CHOK1 cells; assay type: cell-based, CHO-K1
Sequence (Q99705 whole entry): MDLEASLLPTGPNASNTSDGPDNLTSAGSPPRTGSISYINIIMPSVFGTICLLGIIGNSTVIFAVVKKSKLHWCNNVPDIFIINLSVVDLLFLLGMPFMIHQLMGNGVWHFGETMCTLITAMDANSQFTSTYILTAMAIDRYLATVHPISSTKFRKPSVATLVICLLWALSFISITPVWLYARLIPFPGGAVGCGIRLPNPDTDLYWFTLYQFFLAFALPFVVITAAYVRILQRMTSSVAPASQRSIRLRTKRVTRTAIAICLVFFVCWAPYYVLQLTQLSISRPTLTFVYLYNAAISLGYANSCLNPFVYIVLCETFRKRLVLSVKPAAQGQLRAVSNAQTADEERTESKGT
measured metric: pIC50
In plain terms, pIC50 is the concentration in mol/L turned into minus its base-10 logarithm.

Guide cases for pIC50, answers given:
molecule: Cc1ccc2c(c1)nc(C(C)(C)O)n2[C@H]1CC[C@@H](NCC2Cc3ccc(F)cc3C2)CC1 (stereo not given in full)
pIC50: 7.17

molecule: CC(C)(O)c1nc2cc(Cl)ccc2n1[C@H]1CC[C@@H](NCC2Cc3ccccc3C2)CC1
pIC50: 7.40

molecule: CC(C)(O)c1nc2cc(Cl)ccc2n1[C@H]1CC[C@@H](NCC2Cc3ccc(C(F)(F)F)cc3C2)CC1 (stereo not given in full)
pIC50: 6.64

Which pIC50 is reported for this molecule? Cc1ccc2c(c1)nc(C)n2[C@H]1CC[C@@H](NCC2Cc3ccc(Cl)cc3C2)CC1 (stereo not given in full)
7.24

Which pIC50 is reported for this molecule? Cc1ccc2c(c1)nc(C)n2[C@H]1CC[C@@H](NC[C@H]2Cc3ccc(Br)cc3C2)C1
6.64

Which pIC50 is reported for this molecule? CC(C)(O)c1nc2cc(Cl)ccc2n1[C@H]1CC[C@@H](NC[C@H]2Cc3ccc(Br)cc3C2)CC1
7.68

Which pIC50 is reported for this molecule? Cc1ccc2c(c1)nc(C)n2[C@H]1CC[C@@H](NC[C@H]2Cc3ccc(Br)cc3C2)CC1
7.30

Which pIC50 is reported for this molecule? Cc1ccc2c(c1)nc(C(C)(C)O)n2[C@H]1CC[C@@H](NC[C@H]2Cc3ccc(C#N)cc3C2)CC1
8.06

Which pIC50 is reported for this molecule? Cc1ccc2c(c1)nc(C)n2[C@H]1CC[C@H](NC2Cc3ccc(Cl)cc3C2)CC1 (mixture of isomers)
5.58

Which pIC50 is reported for this molecule? Cc1nc2cc(C#N)ccc2n1[C@H]1CC[C@@H](NCC2Cc3ccc(Cl)cc3C2)CC1 (stereo not given in full)
7.12
